procedure_text: in vitro
test_parameters: African green monkey, CC50
endpoint: CC50 (µM)
Field format: number, assumed µM, no unit text.

Look at this compound and give its reported CC50. OCCN1CCN(CC(O)COc2ccc(C34CC5CC(CC(C5)C3)C4)cc2)CC1 (stereo not shown) 4.3

Try the compound CC1CCN(C[C@H](O)COc2ccc(C34CC5CC(CC(C5)C3)C4)cc2)CC1 8.5

O=C(NC1CCNCC1)C1C2CC3CC1CC(c1ccccc1)(C3)C2 (stereo not shown) ? 13.9

Continue with COC(=O)C12CC3CC(C(=O)N[C@H]4CC[C@H](N)CC4)(C1)CC(c1ccccc1)(C3)C2 (stereo partly shown) 59

What do we get for CC1CCN(CC(O)COCCC23CC4CC(CC(C4)C2)C3)CC1 (stereo not shown) ? 15.5

Can you handle O=C(CC1(c2ccccc2)C2CC3CC(C2)CC1C3)NC1CCNCC1 (stereo not shown) next? 26.7

Now give it for CN1CCC(NC(=O)C23CC4CC(C2)CC(c2ccccc2)(C4)C3)CC1 too. 34

Item: CC12CC3CC(C(=O)NC4CNC4)(C1)CC(c1ccccc1)(C3)C2 (stereo not shown) 17.4

Next entry: CC12CC3CC(C(=O)NCCN)(C1)CC(c1ccccc1)(C3)C2 (stereo not shown) 4.2

Another compound to look at: O=C(CC1CCNCC1)NC12CC3CC(C1)CC(c1ccccc1)(C3)C2 23.1

Likewise for N[C@H]1CC[C@H](NC(=O)CC2(c3ccccc3)C3CC4CC(C3)CC2C4)CC1 (stereo partly shown) ? 100

Next up: CC1CCN(C[C@@H](O)COc2ccc(C34CC5CC(CC(C5)C3)C4)cc2)CC1 3.9

Repeat for the following compound: C[C@H]1CN(C(=O)C23CC4CC(C)(C2)CC(c2ccccc2)(C4)C3)CCN1 (stereo partly shown) 4.5

What about CN1CCN(CCCOc2ccc(C34CC5CC(CC(C5)C3)C4)cc2)CC1 ? 3.8

One more compound: c1cc(C23CC4CC(CC(C4)C2)C3)ccc1OCCCN1CCCCC1 14.3

Moving on to the next compound: CCC12CC3CC(C(=O)NC4CCNCC4)(C1)CC(c1ccccc1)(C3)C2 (stereo not shown) 10

CC1CCN(C[C@H](O)COc2ccc(C34CC5CC(CC(c6ccccc6)(C5)C3)C4)cc2)CC1 ? 2.7

Lookup CC12CC3CC(C(=O)N[C@H]4CN5CCC4CC5)(C1)CC(c1ccccc1)(C3)C2 (stereo partly shown) 7.2

Consider next the compound O=C(NCC12CC3CC(C1)CC(c1ccccc1)(C3)C2)C1CCNCC1 in the same way. 11.9

Next compound: Cc1cccc(C23CC4CC(CC(C(=O)N[C@H]5CC[C@H](N)CC5)(C4)C2)C3)c1 6.3

Try this compound too: CC1CCCCN1CC(O)COCCC12CC3CC(CC(C3)C1)C2 (stereo not shown) 7.5

What do you get for C[C@H]1C[C@H](NC(=O)C23CC4CC(C)(C2)CC(c2ccccc2)(C4)C3)CCN1 (stereo partly shown) ? 14.7

Okay, and O=C(NC1CCNCC1)C12CC3CC(C1)CC(c1ccc(Cl)cc1)(C3)C2 ? 22.4

Similarly, O=C(NC1CCNCC1)C12CC3CC(C1)CC(c1ccc(O)cc1)(C3)C2 ? 14

Queued: O=C(CC12CC3CC(C1)CC(c1ccccc1)(C3)C2)N1CCN(Cc2ccccc2)CC1 7.5

Data provenance is patent US12240857B2.
